Target: cAMP-dependent protein kinase catalytic subunit alpha (Homo sapiens)
Test: Protein Kinase A (PKA-HiBiT) SDR gain of signal screen
Settings: PKA-HiBiT structural dynamics response (SDR), luminescence gain of signal; series mostly up to 32.9 µM
Records with an inconclusive call do not appear. Activity calls are given as the source filed them. The call rests on the fitted dose curve.
Choose one outcome from this list and give only that: t = active, f = inactive

>>> print(df.to_string())
                                   molecule  qualitative_label
0  C=CC(=O)N1CCC(Oc2cc3c(Nc4ccc(Cl)c(Cl)c4F)ncnc3cc2OC)CC1                  f
1  FC(F)(F)c1ccc(/C=C/c2nc(COc3ccc(CCCCn4ccnn4)cc3)co2)cc1                  f
2  CNS(=O)(=O)c1ccc2c(c1)/C(=C/c1[nH]c3c(c1CCCN1CCN(C)CC1)CCCC3)C(=O)N2                  f
3  COc1cc(N2CCOCC2)ccc1Nc1ncc(Cl)c(Nc2ccccc2NS(C)(=O)=O)n1                  t
4  C[C@@H](NC(=O)c1ncnc(N)c1Cl)c1ncc(C(=O)Nc2cc(C(F)(F)F)c(Cl)cn2)s1                  f
5  Nc1ncc(-c2cnn(CCO)c2)c2scc(-c3ccc(NC(=O)Nc4cccc(F)c4)cc3)c12                  f
6           c1cc(-c2cc(C3CCNCC3)[nH]n2)ccn1                  t
7  CCCCNc1ncc2c(-c3ccc(S(=O)(=O)N4CCOCC4)cc3)nn(C3CCC(O)CC3)c2n1 (centres undefined)                  f

Turning now to a further record.
Prompt line: What outcome does the record of this test show for `CCn1c(=O)c(-c2ccc(Cl)cc2Cl)cc2cnc(Nc3ccc(N4CCNCC4)c(F)c3)nc21` ?
Response line: f
